- Study target: T1, C-terminal domain-deleted human Regnase-1 (amino acids 1 to 546) with N-terminal FLAG tag and C-terminal BirA … (human, UniProt Q5D1E8 1-546)
- T1 sequence: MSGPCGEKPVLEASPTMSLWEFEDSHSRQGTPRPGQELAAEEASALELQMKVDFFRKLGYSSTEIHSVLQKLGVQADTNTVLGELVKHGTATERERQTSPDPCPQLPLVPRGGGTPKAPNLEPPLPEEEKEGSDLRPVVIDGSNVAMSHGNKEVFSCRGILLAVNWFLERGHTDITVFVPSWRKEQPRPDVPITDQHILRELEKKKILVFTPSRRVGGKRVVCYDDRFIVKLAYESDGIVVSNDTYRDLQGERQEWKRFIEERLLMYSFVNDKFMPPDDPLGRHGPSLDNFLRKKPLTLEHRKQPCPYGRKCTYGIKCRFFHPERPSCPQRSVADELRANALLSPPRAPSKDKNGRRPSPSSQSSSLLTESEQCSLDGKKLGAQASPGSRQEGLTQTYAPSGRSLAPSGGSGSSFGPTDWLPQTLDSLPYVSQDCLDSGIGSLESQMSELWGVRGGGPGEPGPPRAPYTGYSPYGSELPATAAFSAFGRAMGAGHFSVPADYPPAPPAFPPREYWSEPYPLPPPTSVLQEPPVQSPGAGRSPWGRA
- Assay explanation: cell-based or functional assay
Test readout: 50% inhibition concentration, Regnase-1 phosphorylation by IKKβ (AlphaScreen) (µM)
Answers are plain numbers, in µM.

Memo: XNSWYINIWGHD (HELM PEPTIDE1{[meA].N.S.W.Y.I.N.I.W.G.H.D.[C1CCN([*:1])C1]}$PEPTIDE1,PEPTIDE1,1:R1-12:R3$$$V2.0; SMILES CC[C@H](C)[C@@H]1NC(=O)[C@H](CC(N)=O)NC(=O)[C@H]([C@@H](C)CC)NC(=O)[C@H](Cc2ccc(O)cc2)NC(=O)[C@H](Cc2c[nH]c3ccccc23)NC(=O)[C@H](CO)NC(=O)[C@H](CC(N)=O)NC(=O)[C@H](C)N(C)C(=O)C[C@@H](C(=O)N2CCCC2)NC(=O)[C@H](Cc2c[nH]cn2)NC(=O)CNC(=O)[C@H](Cc2c[nH]c3ccccc23)NC1=O) [PP15] , reported 50% inhibition concentration, Regnase-1 phosphorylation by IKKβ (AlphaScreen): 31

Where do these numbers come from? They come from patent US20250018014A1.
